// fold over negative controls lookup, one value per entry
Target: T1, human TMEM106B (human, UniProt Q9NUM4 2-274)
T1 construct: Full-length, on transiently transfected HEK293 cells, or natively expressed on HeLa, U251 and A549 cells; also called huTMEM106B; huTMEM
Assay: FACS, HEK293 transfectants;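 also: hybridoma supernatants incubated 30 min on ice with human TMEM106B-expressing HEK293 cells, binding read as anti-mouse-APC median fluorescence on live cells, relative to secondary-antibody-only wells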
quantity_measured: fold over negative controls

| binder | observed_result |
| --- | --- |
| anti-TMEM106B antibody TM-1 (antibody, V domains shown) VH: QVQLQQSGAELVRPGTSVKVSCKASGYAFTNYLIEWVKQRPGQGLEWIGVINPGSGGTKYNEKLKGKATLTADKSSSTAYMQLSSLTSVDSAVYFCARRGYTIYDFYAMDYWGQGTSVTVSS VL: DVLMTQTPLSLPVSLGDHASISCRSSQSIVYNNGNTYLEWYLQKPGQSPKLLIYKVSNRFSGVPDRFSGSGSGTDFTLKISRVEAEDLGVYYCFQVSHVPFTFGSGTKLEIK | > 2 fold |
| anti-TMEM106B antibody TM-52 (antibody, V domains shown, mouse IgG from hybridoma) VH: QVQLQQPGAELVKPGASVKLSCKASGYTFTNYWMHWVKQRPGQGLDWIGNIDPSDSETHYNQKFKDKATLTVDKVSSTAYMQLSSLTSEDSAVYYCARRGYYGRSPFAYWGQGTLVTVSA VL: ENVLTQSPAIMSASPGEKVTMTCSASSSVSYMHWYQQKSNTSPKLWIYDTSKLASGVPGRFSGSGSGNSYSLTISSAEAEDVATYYCFQGSGYPLTFGAGTKLELK | > 2 fold |
| anti-TMEM106B antibody TM-10 (antibody, V domains shown) VH: QVQLQQSGAELVKPGASVKISCKGSGYAFSSYWMNWVKQRPGKGLEWIGQIYPGDGDTNYNGKFKGKATLTADKSSTTAYIHLSSLTSEDSAVYFCARWGHYDEAMDDWGQGTSVTVSS VL: DVVMTQTPLSLPVSLGDQASISCRSSQSLVHSNGKTYLHWYVQKPGQSPKLLIYKISNRFSGVPDRFSGSGSGTDFTLKISRVEAEDLGVYFCSQITHVPWTFGGGTKLESK | > 2 fold |
